The reported measurements were obtained from PubChem BioAssay.

# Procedure details: viability loss in pontine glioma line – cell-based, SU-DIPG-IV, MIPE4.0, CellTiter-Glo, qHTS, dose response (AID 1347063);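 note: compound exposure lasted 48 hours before the viability readout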
# Measurement parameters: CellTiter-Glo ATP luminescence
Records with an inconclusive call do not appear. Calls of active or inactive are those of the source. No cut-off is given here; in the data, nearly all actives have AC50 up to about 30 µM.
// classify into true (1) = active, false (0) = inactive

NC1(Cc2ccc(Cl)cc2)CCN(c2ncnc3[nH]ccc23)CC1	true (1)
O=[N+]([O-])c1cn2c(n1)OC[C@@H](OCc1ccc(OC(F)(F)F)cc1)C2	false (0)
O=C(Nc1ccccc1Br)N[C@@H]1CCN(c2ccc(C(F)(F)F)cn2)C1	false (0)
C=C1C(=O)O[C@@H]2[C@H]3O[C@]3(C)CC/C=C(\C)CC[C@@H]12	true (1)
CN1c2ccccc2C(=O)N2CCc3c([nH]c4ccccc34)C21 (centres undefined)	false (0)

Request: Assay outcome for COc1cc(N2CCC(C(N)=O)CC2)ccc1Nc1nc(N)c(Cl)c(Nc2ccccc2S(=O)(=O)C(C)C)n1 : what was it?
Result: true (1)

Request: Next: Cc1c(CN2CCN(S(C)(=O)=O)CC2)sc2c(N3CCOCC3)nc(-c3cnc(N)nc3)nc12
Result: true (1)

Request: Follow-up entry: CC(N[C@H]1CCCC[C@@H]1NC(=O)c1ccc(Cl)cc1)c1cccc2ccccc12 (some centres undefined)
Result: true (1)

Request: Next compound: Cc1noc(-c2ccc(CSCCC(=O)O)cc2)c1NC(=O)OC(C)c1ccccc1Cl (centres undefined)
Result: false (0)

Request: Moving on to O=C(O)[C@H](Cc1c[nH]c2ccccc12)N1C(=O)c2ccccc2C1=O
Result: false (0)

Request: Next compound up: CC(C)c1cc(C(C)C)c(CC(=O)NS(=O)(=O)Oc2c(C(C)C)cccc2C(C)C)c(C(C)C)c1
Result: true (1)

Request: What would you report for CN1c2cc(O)c(N=NC(N)=O)cc2CC1S(=O)(=O)O (centres undefined) ?
Result: false (0)

Request: Similarly, Nc1nccc(Oc2ccc(NC(=O)c3c[nH]cc(-c4ccc(F)cc4)c3=O)cc2F)c1Cl ?
Result: true (1)

Request: What do you get for CC[C@H](CC[C@@H](C)[C@H]1CC[C@H]2[C@@H]3CC=C4C[C@@H](O)CC[C@]4(C)[C@H]3CC[C@]12C)C(C)C ?
Result: false (0)

Request: And then CC(C)CC(=O)Nc1n[nH]c2c1CN(C(=O)C1CCN(C)CC1)C2(C)C , what is it?
Result: true (1)

* * *

# Procedure details: growth inhibition of DIPG cells – cell-based, MIPE4.0 library, CellTiter-Glo luminescence, qHTS (AID 1347066);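 note: cells exposed to compound for 48 hours before readout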
# Measurement parameters: SU-DIPG-VI viability, CellTiter-Glo ATP luminescence
Results filed as inconclusive are left out. Active and inactive are the calls of the source. No cut-off is given here; in the data, nearly all actives have AC50 up to about 30 µM.
Just give me one of these, please: active, inactive

Example cases with answers are listed next.
CCCCCCCCCCCCCCCC(=O)OC[C@@H](NC(=O)C(Cl)Cl)[C@H](O)c1ccc([N+](=O)[O-])cc1	inactive
COc1cc(C)c(Sc2cnc(NC(=O)c3ccc(CNC(C)C(C)(C)C)cc3)s2)cc1C(=O)N1CCN(C(C)=O)CC1 (stereo unspecified)	active

Request: Fill in: this test's call for CCC(C)SSc1ncc[nH]1 (stereo unspecified) is ___
Result: active

Request: Check CN1c2cc(O)c(N=NC(N)=O)cc2CC1S(=O)(=O)O (stereo unspecified) too.
Result: inactive

Request: Same for CC(C)c1cnn2c(NCc3ccccc3)cc(NCCCCCCN)nc12
Result: active

Request: Now try C/C(=N\NC(=S)N1CCC1)c1ccccn1 .
Result: active
